# protocol.description: Half life in human liver microsomes in presence of NADPH
# Assay type: ADME, Microsome
Hi there, I'd appreciate the recorded half-life for every entry that follows.
Write the answer as a number in min, unit excluded.

For `C#CCn1nnc2c(-c3nc(C)cs3)ncn2c1=O` , what is its reported half-life? 14.2

Which value of half-life has been reported for Cn1nnc2c(C(N)=O)ncn2c1=O [TEMOZOLOMIDE] in the records? 50.9

Sample `C#CCn1nnc2c(-c3nccs3)ncn2c1=O` — what was its half-life? 31.6

Requested read-out: half-life. Entry: `C#CCn1nnc2c(C(N)=O)ncn2c1=O` 77.8

----------
# protocol.description: Half life in human liver microsomes in absence of NADPH
# Assay type: ADME, Microsome
So I've got a bunch of compounds here, and I need their half-life values.

What half-life value was documented for this compound, `C#CCn1nnc2c(C(N)=O)ncn2c1=O` ? 0.918 h

# lookup: half-life of `C#CCn1nnc2c(-c3nc(C)cs3)ncn2c1=O` 1.27 h

Query (compound): `C#CCn1nnc2c(-c3nccs3)ncn2c1=O` ; field requested: half-life 1.53 h

What does the data say about its half-life? Entry: Cn1nnc2c(C(N)=O)ncn2c1=O [TEMOZOLOMIDE] 1 h
